// provenance: ChEMBL document CHEMBL2057177

// reported log10 IC50 for each item listed
- Test system: Trypanosoma cruzi
- assay.summary: Antitrypanosomal activity against trypomastigotes of Trypanosoma cruzi Tulahuen expressing the beta- galactosidase gene infected rat L6 cells after 96 hrs
- Type: functional, organism-based
- applied.conditions: L6, 96 h
Parameter value (number): base-10 log of IC50 in nM.

Illustrative cases are given below, each with its answer.
> print(dat)
                                   compound  observed.measurement
1  N#CC(c1ccc(Cl)cc1)(c1cccnc1)c1ccccc1Cl (racemic)                  1.70
2  OC(c1ccc(C(F)(F)F)cc1)(c1ccc(C(F)(F)F)cc1)c1cccnc1                  1.18
3  CC(C)Oc1ccc(C(O)(c2cccnc2)c2ccc(Cl)cc2F)cc1 (racemic)                  0.00
4  CC(C)Oc1ccc(C(O)(c2ccc(Cl)cc2)c2cccnc2)cc1 (racemic)                  0.30
5  CC(C)Oc1ccc(C(O)(c2ccc(C(F)(F)F)cc2)c2cccnc2)cc1 (racemic)                  0.60

Form: compound = OC(c1ccc(Cl)cc1)(c1ccccn1)c1ccccc1Cl (racemic) ; log10 IC50 = 4.43

compound CC(C)c1ccc(C(O)(c2ccc(C(F)(F)F)cc2)c2cccnc2)cc1 (racemic) , log10 IC50 observed: 0.30

Recorded log10 IC50 (compound OC(c1ccc(Cl)cc1)(c1cncnc1)c1ccccc1Cl (stereo not given) [FENARIMOL] ): 2.54

// sample CC(C)Oc1ccc(C(O)(c2ccc(Cl)cc2)c2cccnc2)c(F)c1 (racemic) , its log10 IC50 was 1.41

Memo: OC(c1ccc(Cl)cc1)(c1cccnc1)c1ccc(F)cc1F (racemic) , reported log10 IC50: 1.20
